tested on: HepG2; assay: GSK_TCMDC: Percent inhibition of human HepG2 cell line. Test compounds present at 10uM.; assay type: functional
# key: entry, value: Inhibition
Value type: Inhibition (%)

Cc1cc(NC(=O)c2cc(S(=O)(=O)N3CCCCC3)ccc2C)no1 : 0
CCn1c(SCc2ccc(F)cc2)nc2sc3c(c2c1=O)CCN(C)C3 : 2
CCOC(=O)c1ccc(NC(=O)N[C@H]2CCN(CCCCCNC(=O)/C=C/c3ccc(Cl)c(Cl)c3)C2)cc1 : 21
Cl.c1cc(COc2ccc(C3=NCCN3)cc2)nc(COc2ccc(C3=NCCN3)cc2)c1 : 8
CC(C)CNCc1cccc(-c2ccc(CN(C(=O)NCCc3ccccc3)C3CCN(Cc4ccccc4)CC3)cc2)c1.O=C(O)C(F)(F)F : 99
O=C(O)C(F)(F)F.Oc1ccc(CCCNc2nc(NCc3cccc4ccccc34)nc(N3CCCNCC3)n2)cc1 : 98
COc1ccc(CCn2c(=N)c(C(=O)NCc3ccccc3)cc3c(=O)n4ccccc4nc32)cc1 : 14
C=CCN(c1ccc(OC)cc1)S(=O)(=O)c1ccc(Cl)c(C(=O)Nc2cccc(C#N)c2)c1 : 6
CNCc1ccc2nc(-c3coc(Cc4cc(Cl)ccc4OCC(C)C)n3)[nH]c2c1.Cl : 34

---

Recorded Inhibition for the following compounds
tested on: HepG2; experiment: GSK_TCMDC: Percent inhibition of human HepG2 cell line. Test compounds present at 10uM.; format: functional
Value type: Inhibition (%)

CC(C)c1ccc(NC(=O)c2ccc(CN3CCCN(Cc4cccc(Cl)c4)CC3)cc2)cc1.O=C(O)C(F)(F)F : 45
COc1cc(OC)c(NC(=O)C2c3ccccc3C(=O)N(C)C2c2cccs2)cc1Cl (stereo not drawn) : 4
CN(Cc1cccc(F)c1)C1CCCN(c2cc(NC(=O)c3ccccc3)ccn2)C1.O=C(O)C(F)(F)F (stereo not drawn) : 3
O=C(O)C(F)(F)F.c1ccc(CCNCc2ccc(-c3ccc(CNc4ccc5ncccc5c4)cc3)cc2)cc1 : 36
Cl.Oc1ccc(Nc2nc(N3CCCC3)c3ccccc3n2)cc1 : 10
N#Cc1cccc(NC(=O)Nc2cccc(OC3CCN(Cc4ccccc4)CC3)c2)c1.O=C(O)C(F)(F)F : 5
Cc1ccc(CCOCCCCCNCC(O)c2cc(Cl)c(N)c(Cl)c2)cc1 (stereo not drawn) : 10
C[C@H](NC(=O)c1c(OC2CN(C(c3ccccc3)c3ccccc3)C2)c(-c2ccccc2)nc2ccccc12)C1CCCCC1 : 0
CN(C)c1cccc2c1nc(-c1ccco1)n2CCNCc1ccccc1.O=C(O)C(F)(F)F : 0
CC(C)c1ccc(OCC(O)CN(CCN2CCOCC2)C(=O)Nc2ccc(Br)cc2)cc1.O=C(O)C(F)(F)F (stereo not drawn) : 6
CC(C)(C)c1ccc(NC(=O)c2ccc(CN3CCCN(Cc4ccsc4)CC3)cc2)cc1.O=C(O)C(F)(F)F : 50
Cc1cccc2nc(-c3cccc(-c4ccc(NC(=O)NCc5cccc(F)c5)cc4)c3)[nH]c12 : 40
CC(=O)Nc1ncc(C(=O)Nc2ccc(-c3cccc(-c4nc5cc(F)ccc5[nH]4)c3)cc2)s1 : 47
Cc1[nH]c2ccc(O)cc2c1C1CCN(CCCCCNC(=O)/C=C/c2ccc(Cl)c(Cl)c2)CC1 : 33
O=C(Nc1ccc(C(F)(F)F)cc1)Nc1ccccc1N1CCNCC1.O=C(O)C(F)(F)F : 39
CNC(=O)Cc1ccc(C(=O)Nc2cccc(-c3ccc(-c4nc5cccc(C)c5[nH]4)s3)c2)cc1 : 66
O=C(Nc1cc2cc(-c3ccc(CN4CCCCC4)cc3)ccc2n2cnnc12)NC1CCCC1 : 78
CCOc1ccc(Nc2ccc3nonc3c2S(=O)(=O)Nc2ccc(OCC)cc2)cc1 : 6

---

tested on: Plasmodium falciparum; experiment: GSK_TCMDC: Inhibition of Plasmodium falciparum Dd2 in whole red blood cells, using parasite LDH activity as an index of growth. Test compounds present at 2uM; type: functional
# key: entry, value: Inhibition
Value type: Inhibition (%)

CN1CCN(CC(=O)Nc2ccc(-c3ccc(-c4nc5cc(C(F)(F)F)ccc5[nH]4)s3)cc2)CC1 : 73
O=C(O)C(F)(F)F.c1cc(CN2CCCCC2)cc(-c2ccc(-c3nc4ccccc4[nH]3)cc2)c1 : 88
O=C(/C=C/c1ccc(Cl)c(Cl)c1)NCCCCCCN1CCCN(C(=O)Nc2cc(F)cc(F)c2)CC1 : 0
COc1cc2ccccc2c(CON2C(=N)N=C(N)NC2(C)C)c1OC.Cl : 10
N#Cc1ccccc1Sc1ccccc1C(=O)Nc1ccc2ccccc2n1 : 85
Cc1nc(-c2cccc(Nc3nccc(NCC(O)c4cccc(F)c4)n3)c2)cs1 (stereo not given) : 59
Cl.N#Cc1ccc2c(c1)CCN(CCC1CCC(NC(=O)Nc3cnc4ccccc4c3)CC1)C2 (stereo not given) : 9
COc1ccc(C2CC(c3cccs3)=NN2C(=O)CNc2cccc(C#N)c2)cc1OC (stereo not given) : 35
COc1ccccc1-c1cccc2c(NC(=O)Nc3ccc4nccc(N5CCN(C)CC5)c4c3)ccnc12 : 34
CCc1cc(NC2CCN(C)CC2)nc(Nc2ccc(C)cc2)n1 : 11

---

tested on: HepG2; test: GSK_TCMDC: Percent inhibition of human HepG2 cell line. Test compounds present at 10uM.; assay type: functional
Lab note - cut at 30% for Inhibition: Satisfied if strictly below, Not satisfied if not.

Cc1cc(N[C@@H](CC(C)C)C(=O)NCc2cccs2)nc(NCCc2ccccc2)n1.O=C(O)C(F)(F)F : Satisfied
CC(=O)NCCNc1nccc(N2CCc3ncnc(Nc4ccc(OCc5cccc(F)c5)c(Cl)c4)c3C2)n1 : Satisfied
CN1CCCc2ccc(NC(=O)C=Cc3ccc(-c4ccc(F)cc4F)o3)cc2C1.O=C(O)C(F)(F)F : Satisfied
Br.COc1ccc(CCON2C(=N)N=C(N)NC2(C)C)cc1OC : Not satisfied
Cc1ccc(-c2cc(C(=O)Nc3ccc(S(=O)(=O)N(C)Cc4ccccc4)cc3)[nH]n2)c(O)c1 : Not satisfied

---

tested on: Plasmodium falciparum; assay: GSK_TCMDC: Inhibition of Plasmodium falciparum 3D7 in whole red blood cells, using parasite LDH activity as an index of growth. Test compounds present at 2uM; format: functional
Value type: Inhibition

COc1ccc(Nc2nc(NCc3cccc(NS(C)(=O)=O)c3)cc(-c3ccc(OC)cc3)n2)cc1 : 84%
CC(=O)Nc1ncc(C(=O)Nc2cccc(-c3ccc(-c4nc5cc(C(F)(F)F)ccc5[nH]4)cc3)c2)s1 : 100%
COc1cc2nc(N3CCC(CNC(=O)c4ccc(-c5ccc(C(=O)N(C)C)cc5O)cc4)CC3)nc(N)c2cc1OC : 100%
Cc1cc(N2CCCC2)nc(Nc2ccc(NC(=O)CC(C)C)cc2)n1 : 95%
Cn1cc(CCNc2ccnc(N3CCC(c4ncc[nH]4)CC3)n2)c2ccccc21 : 92%

---

tested on: Plasmodium falciparum; test: GSK_TCMDC: Inhibition of Plasmodium falciparum 3D7 in whole red blood cells, using parasite LDH activity as an index of growth. Test compounds present at 2uM; format: functional
Value type: Inhibition

Cc1[nH]c(C)c(-c2ccc(Br)cc2)c(=O)c1Cl : 94%
Cc1ccc2[nH]c(/C=C/c3cccc4cc[nH]c34)nc2c1 : 100%
Cc1cccc(CNc2nc(C)cc(N[C@@H](Cc3ccccc3)C(=O)NCCc3ccccc3)n2)c1.O=C(O)C(F)(F)F : 99%
O=C(Nc1cccc(-c2ccc(-c3nc4cc(F)ccc4[nH]3)cc2)c1)Nc1ccc(F)c(F)c1F : 98%
O=C(CCN(Cc1ccco1)c1nc(-c2ccc(F)cc2)nc2ccccc12)NC1CC1 : 94%
CC(C)(C)C(=O)Oc1ccc(CC2NCCc3cc(OC(=O)C(C)(C)C)c(OC(=O)C(C)(C)C)cc32)cc1OC(=O)C(C)(C)C (centres undefined) : 97%
Cl.O=C(Nc1cccc(Cl)c1)OC1CCCN2CCCCC12 (centres undefined) : 85%
Cc1ccc(-n2ncc(C(=O)Nc3cc(Cl)cc(Cl)c3)c2C2CCNCC2)cc1C.Cl : 100%
O=C(Nc1cccc(CN2CCN(C(=O)c3cccc(Cl)c3)CC2)c1)c1ccco1.O=C(O)C(F)(F)F : 96%

---

test system: Plasmodium falciparum; experiment: GSK_TCMDC: Inhibition of Plasmodium falciparum Dd2 in whole red blood cells, using parasite LDH activity as an index of growth. Test compounds present at 2uM; format: functional
Inhibition reference
Value type: Inhibition (%)

C[C@H](Cc1ccc(S(=O)(=O)c2ccc(C[C@@H](C)NC[C@H](O)c3cccc(Cl)c3)cc2)cc1)NC[C@H](O)c1cccc(Cl)c1.Cl : 98
CCC(=O)Nc1ccc(Nc2nc(C)cc(N3CCCC3)n2)cc1 : 2
C=CCC(CC=C)N1C(=O)C(c2ccccc2)(c2ccccc2)N=C1N.O=CO : 97
Cc1ccc(-c2nnc(-c3ccc(C(=O)NC4CCN(Cc5ccc(C#N)cc5)CC4)cc3)o2)cc1Br : 7
c1ccc(Oc2ccc(Nc3ccnc4ccc(-c5ccccn5)cc34)cc2)cc1 : 10
Cc1ccc2[nH]c(C)cc(=NN=Cc3ccccc3Cl)c2c1 : 62
Cc1cc(N[C@@H](CC(C)C)C(=O)NCc2cccc(F)c2)nc(NCCc2ccc(F)cc2)n1.O=C(O)C(F)(F)F : 6
Br.CC1(C)NC(N)=NC(=N)N1OCCCCOc1ccccc1 : 95
CCc1cn2c3c(cc(C(=O)N[C@@H](Cc4cccc(F)c4)[C@H](O)CNC4CCOCC4)cc13)N(C)S(=O)(=O)CC2.O=CO : 97
